Experiment: melting temperature; fluorescence melt of hairpins on a sequencing array, two-state fit, raised by 9.35 °C to match UV melts
Conditions: sodium 0.088 M
assay.endpoint: Tm (°C)
Reply with just the number (in °C).

Which Tm is reported for this sequence? GCTAGCGAAAGCTTGAGC ((((((....)))..)))
41.2

Name the recorded Tm for GATCAACAAGTTGATC ((((((....)))))) .
51.8

Recorded Tm of CGTGCGGAAACGCTACG ((((((....))).))) , please.
50.6

Which Tm reading was recorded for the sequence GAGTTAGGAAACCAACTC (((((.(....).))))) ?
35.4

Requested read-out: Tm. Entry: GGAGCGGGAAACCGTTCC (((.(((....))).)))
54.9

Quick one: Tm for GTGTACGGAAACGTGTAC ((..(((....)))..)) ?
35.2

For the sequence GCCTAGTCGAAAGACGGC (((..(((....)))))) , what Tm is on record?
51.6

Look up Tm: GCGATAGGAAACCATCGC (((((.(....).)))))
50.1

Requested read-out: Tm. Entry: GGTGTTTCGAAAGAAACC (((..(((....))))))
42.5

Item under review: GGTGGCGAAAGCCCGACC ((((((....)))..))) . Reported Tm?
41.5

Value lookup for Tm; key = GATCGAAACCTCGATC ((((((....))))))
51.3

# query: Tm of entry GTGTTTGCGAAAGCACAC (((..(((....))))))
45.9
